B1: CPEB3 Ribozyme (parent)
chain: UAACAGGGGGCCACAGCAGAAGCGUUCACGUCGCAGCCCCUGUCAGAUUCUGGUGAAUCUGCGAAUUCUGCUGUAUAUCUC

# Variants of: B1
# assay_summary: self-cleavage, relative activity (ratio to wild type); higher = more cleavage; in vitro, sequencing
For each record, write down the corresponding self-cleavage.
Write the value as a bare number.

Query: Recorded self-cleavage of C68A U74G , please.
Response: 0.68

Query: Recorded self-cleavage of A5C A21G , please.
Response: 0.69

Query: Recorded self-cleavage of A15G C37G , please.
Response: 0.69
